Biological target: Human adrenergic α2B receptor (Homo sapiens)
Sequence (P18089 whole entry): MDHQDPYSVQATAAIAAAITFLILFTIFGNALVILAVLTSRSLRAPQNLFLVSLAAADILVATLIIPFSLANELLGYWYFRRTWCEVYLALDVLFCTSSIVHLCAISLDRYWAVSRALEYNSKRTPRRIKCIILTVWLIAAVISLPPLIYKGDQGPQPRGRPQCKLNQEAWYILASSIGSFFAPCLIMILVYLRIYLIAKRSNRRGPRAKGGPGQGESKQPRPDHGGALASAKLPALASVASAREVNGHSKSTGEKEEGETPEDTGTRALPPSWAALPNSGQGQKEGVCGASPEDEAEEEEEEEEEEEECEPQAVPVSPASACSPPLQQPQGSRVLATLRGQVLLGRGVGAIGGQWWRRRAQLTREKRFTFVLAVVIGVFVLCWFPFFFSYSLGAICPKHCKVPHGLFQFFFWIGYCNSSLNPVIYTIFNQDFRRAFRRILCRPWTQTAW
Assay: Radioligand binding, adrenergic α2B (Protocol Group B)
Parameters: purchased Milipore (Millipore)
Settings: 0.1 μM compound; Protocol Group B; 0.1 µM
We use 20% as the dividing line for Percentage inhibition of ligand binding, Adrenergic α2B (0.1 μM): on or above the line is 1, below is 0.

{"columns": ["COMPOUND", "ASSAY TARGET", "CLASS NAME"],
 "data": [
  ["OC(Cn1c2c(c3cc(F)ccc31)C1CCCN1CC2)c1ccncc1 (single isomer, unassigned) [18d]", "Human adrenergic α2B receptor (Homo sapiens)", 1],
  ["CC(O)(Cn1c2c(c3cc(Cl)cc(F)c31)C1CCCN1CC2)c1ccncc1 (single isomer, unassigned) [52b]", "Human adrenergic α2B receptor (Homo sapiens)", 1],
  ["Cc1ccc2c(c1)c1c(n2CC(O)c2ccccn2)CC2CCCN2C1 (single isomer, unassigned) [45d]", "Human adrenergic α2B receptor (Homo sapiens)", 1],
  ["Cc1cc(F)cc2c3c(n(CC(C)(O)c4ccncc4)c12)CC1CCCN1C3 (single isomer, unassigned) [78a]", "Human adrenergic α2B receptor (Homo sapiens)", 0],
  ["Cc1cc(F)cc2c3c(n(CC(C)(O)c4ccncc4)c12)CC1CCCN1C3 (single isomer, unassigned) [78b]", "Human adrenergic α2B receptor (Homo sapiens)", 1],
  ["Cc1ccc2c(c1)c1c(n2CC(C)(O)c2cccnc2)CC2CCCN2C1 (stereo not shown) [38a]", "Human adrenergic α2B receptor (Homo sapiens)", 1],
  ["Cc1ccc2c(c1)c1c(n2CC(C)(O)c2cccnc2)CC2CCCN2C1 (stereo not shown) [41a]", "Human adrenergic α2B receptor (Homo sapiens)", 1],
  ["Cc1cc2c3c(n(CC(C)(O)c4ccncc4)c2cc1Cl)CCN1CCCC31 (single isomer, unassigned) [50c]", "Human adrenergic α2B receptor (Homo sapiens)", 1],
  ["Cc1ccc2c(c1)c1c(n2CC(C)(O)c2cncc(F)c2)CCN(C)C1 (single isomer, unassigned) [46a]", "Human adrenergic α2B receptor (Homo sapiens)", 1],
  ["CCCOC(Cn1c2c(c3cc(C)ccc31)CN(C)CC2)c1ccncc1 (single isomer, unassigned) [42b]", "Human adrenergic α2B receptor (Homo sapiens)", 1],
  ["CC(O)(Cn1c2c(c3cc(F)ccc31)C1CCCN1CC2)c1cccnc1 (stereo not shown) [57a]", "Human adrenergic α2B receptor (Homo sapiens)", 0],
  ["Cc1ccc2c(c1)c1c(n2CC(O)c2cccnc2)CC2CCCN2C1 (single isomer, unassigned) [27a]", "Human adrenergic α2B receptor (Homo sapiens)", 1],
  ["CC(O)(Cn1c2c(c3cc(Cl)cc(F)c31)C1CCCN1CC2)c1ccncc1 (single isomer, unassigned) [52d]", "Human adrenergic α2B receptor (Homo sapiens)", 0],
  ["Cc1ccc2c(c1)c1c(n2CC(C)(O)c2cccnc2)CC2CCC1N2C (single isomer, unassigned) [101d]", "Human adrenergic α2B receptor (Homo sapiens)", 0],
  ["Cc1ccc2c(c1)c1c(n2CC(O)c2ccccn2)CC2CCCN2C1 (single isomer, unassigned) [45c]", "Human adrenergic α2B receptor (Homo sapiens)", 0],
  ["CN1CCc2c(c3cc(C(F)(F)F)ccc3n2CC(OC2CCCC2)c2ccncc2)C1 (single isomer, unassigned) [60b]", "Human adrenergic α2B receptor (Homo sapiens)", 1]
]}

---

Molecular target: UniProt:P35368
Sequence (P35368 1-520): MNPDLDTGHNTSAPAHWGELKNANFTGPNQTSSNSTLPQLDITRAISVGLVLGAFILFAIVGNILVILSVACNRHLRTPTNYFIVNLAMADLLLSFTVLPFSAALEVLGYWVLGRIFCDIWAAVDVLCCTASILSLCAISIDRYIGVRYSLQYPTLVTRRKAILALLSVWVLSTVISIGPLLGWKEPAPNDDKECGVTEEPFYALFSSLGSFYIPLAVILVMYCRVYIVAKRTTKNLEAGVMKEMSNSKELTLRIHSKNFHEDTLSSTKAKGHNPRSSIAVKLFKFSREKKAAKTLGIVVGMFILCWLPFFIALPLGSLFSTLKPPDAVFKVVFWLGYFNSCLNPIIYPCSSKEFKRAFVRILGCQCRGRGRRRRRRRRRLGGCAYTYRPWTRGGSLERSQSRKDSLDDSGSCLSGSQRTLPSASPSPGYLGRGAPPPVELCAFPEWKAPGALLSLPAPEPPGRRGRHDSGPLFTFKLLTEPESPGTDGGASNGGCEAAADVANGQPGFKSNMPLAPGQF
Let's look at some compounds and their measured Ki.

{"columns": ["COMPOUND", "Ki, nM"],
 "data": [
  ["Cc1ccc2c(c1)c1c(n2CC(OCC2CCC2)c2ccncc2)CCN2CCCC12 (single isomer, unassigned) [138b]", 14],
  ["Cc1ccc2c(c1)c1c(n2CC(O)c2ccncc2F)CCN2CCCC12 (single isomer, unassigned) [14a]", 18.2],
  ["Cc1cc(C)c2c(c1)c1c(n2CC(C)(O)c2ccncc2)CCN2CCCC12 (single isomer, unassigned) [19b]", 37.5],
  ["Cc1ccc2c(c1)c1c(n2CC(OCC2CCC2)c2ccncc2)CCN2CCCC12 (single isomer, unassigned) [138a]", 2.4]
]}

---

Let's look at some compounds and their measured percent inhibition of specific binding, Adrenergic α2A.
Molecular target: Human adrenergic α2A receptor (Homo sapiens, UniProt P08913)
Sequence (P08913 whole entry): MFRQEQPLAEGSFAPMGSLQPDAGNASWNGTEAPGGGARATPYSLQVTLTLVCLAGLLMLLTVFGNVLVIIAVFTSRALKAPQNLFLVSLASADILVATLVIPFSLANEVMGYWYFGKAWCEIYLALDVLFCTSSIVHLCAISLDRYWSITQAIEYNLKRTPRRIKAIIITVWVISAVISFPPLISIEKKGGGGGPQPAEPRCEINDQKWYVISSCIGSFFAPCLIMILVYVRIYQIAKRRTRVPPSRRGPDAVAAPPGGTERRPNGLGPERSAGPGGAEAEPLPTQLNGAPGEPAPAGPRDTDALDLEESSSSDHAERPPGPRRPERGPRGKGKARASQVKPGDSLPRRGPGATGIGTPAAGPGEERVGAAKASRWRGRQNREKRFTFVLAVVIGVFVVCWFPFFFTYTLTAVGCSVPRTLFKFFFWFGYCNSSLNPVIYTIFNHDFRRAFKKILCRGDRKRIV
Assay: Radioligand binding, adrenergic α2A (Protocol Group A)
Design: expressed in transfected cells; host or cells: insect Sf9 cells
Settings: 0.1 μM compound, [3H]MK-912, 0.1 µM
ASSAY READOUT: percent inhibition of specific binding, Adrenergic α2A (%)

{"columns": ["COMPOUND", "NUMERIC RESULT"],
 "data": [
  ["c1cncc(CCn2c3c(c4ccccc42)C2CCCN2CC3)c1 (single isomer, unassigned) [2a]", 31],
  ["Cc1ccc(C(F)Cn2c3c(c4cccnc42)C2CCCN2CC3)cn1 (single isomer, unassigned) [10a]", 0],
  ["Cc1ccc2c(c1)c1c(n2CC(OC(=O)N2CCCC2)c2ccncc2)CCN(C)C1 (centres unmarked) [compound 4]", 33],
  ["c1cncc(CCn2c3c(c4ccccc42)C2CCCN2CC3)c1 (single isomer, unassigned) [2b]", 13],
  ["Cc1ccc(C(F)Cn2c3c(c4cccnc42)C2CCCN2CC3)cn1 (single isomer, unassigned) [10b]", "−1"]
]}

---

Let's look at some molecules and their measured Percentage inhibition of ligand binding, Adrenergic α2A (0.3 μM).
Molecular target: Human adrenergic α2A receptor (Homo sapiens, UniProt P08913)
Experiment: Radioligand binding, adrenergic α2A (Protocol Group B)
Set-up: purchased Milipore (Millipore)
Conditions: 0.3 μM compound; Protocol Group B; 0.3 µM
ASSAY READOUT: Percentage inhibition of ligand binding, Adrenergic α2A (0.3 μM) (%)

{"columns": ["MOLECULE", "NUMERIC RESULT"],
 "data": [
  ["OC(Cn1c2c(c3cc(Cl)cc(F)c31)C1CCCN1CC2)c1ccncc1 (single isomer, unassigned) [135c]", 18],
  ["Cc1cc(C)c2c(c1)c1c(n2CC(C)(O)c2cccnc2)CCN2CCCC12 (single isomer, unassigned) [44a]", 70],
  ["Cc1cc(C)c2c(c1)c1c(n2CC(C)(O)c2ccncc2)CCN2CCCC12 (stereo not drawn) [compound 19]", 79],
  ["Cc1cc(F)cc2c3c(n(CC(C)(O)c4cccnc4)c12)CC1CCCN1C3 (single isomer, unassigned) [76b]", 0],
  ["CC(O)(Cn1c2c(c3cc(F)ccc31)C1CCCN1CC2)c1ccncc1 (single isomer, unassigned) [31d]", 6],
  ["Cc1cc(F)c2c(c1)c1c(n2CC(C)(O)c2ccncc2)CC2CCCN2C1 (single isomer, unassigned) [62c]", 21],
  ["CCOC(Cn1c2c(c3cc(C)ccc31)CN(C)CC2)c1ccncc1 (single isomer, unassigned) [43b]", 28],
  ["OC(Cn1c2c(c3cc(F)ccc31)C1CCCN1CC2)c1ccncc1 (single isomer, unassigned) [18c]", 0],
  ["Cc1cc(F)c2c(c1)c1c(n2CC(C)(O)c2ccncc2)CCN2CCCC12 (single isomer, unassigned) [81d]", 6],
  ["Cc1cc(F)cc2c3c(n(CC(C)(O)c4cccnc4)c12)CCN1CCCC31 (single isomer, unassigned) [75a]", 22],
  ["Cc1cc(F)cc2c3c(n(CC(C)(O)c4cccnc4)c12)CCN1CCCC31 (single isomer, unassigned) [75c]", 84],
  ["CC(O)(Cn1c2c(c3cc(F)ccc31)C1CCCN1CC2)c1cccnc1 (stereo not drawn) [57b]", "−7"],
  ["OC(Cn1c2c(c3cc(Cl)cc(F)c31)C1CCCN1CC2)c1ccncc1 (single isomer, unassigned) [135d]", 2],
  ["Cc1ccc2c(c1)c1c(n2CC(OC(N)=O)c2ccncc2)CCN(C)C1 (single isomer, unassigned)", 14],
  ["Cc1ccc2c(c1)c1c(n2CC(C)(O)c2cccnc2)CC2CCC1N2C (single isomer, unassigned) [101d]", 3]
]}

Each recorded value in this set is attributed to patent US20150315188A1.
